Kindly state MIC for each of the entries shown.
System: K. pneumoniae MP-546
Experiment: Broth dilution MIC determination (CLSI), K. pneumoniae MP-546
Assay type: cell-based
Conditions: Klebsiella pneumoniae, MP546; strain MP-546, broth dilution

Item: CO[C@]1(C)C[C@@H](C)CN(C)[C@H](C2CN(Cc3cc(C)on3)C2)COC(=O)C(C)(C)C(=O)[C@H](C)[C@H]1O[C@@H]1O[C@H](C)C[C@H](N(C)C)[C@H]1O | MIC: 4 to 32 µg/mL

Item: CCCN1CC([C@H]2COC(=O)C(C)(C)C(=O)[C@H](C)[C@@H](O[C@@H]3O[C@H](C)C[C@H](N(C)C)[C@H]3O)[C@](C)(OC)C[C@@H](C)CN2C)C1 | MIC: 4 to 32 µg/mL

Item: CO[C@]1(C)C[C@@H](C)CN(C)[C@H]([C@@H]2CCCNC2)COC(=O)C(C)(C)C(=O)[C@H](C)[C@H]1O[C@@H]1O[C@H](C)C[C@H](N(C)C)[C@H]1O | MIC: 4 to 32 µg/mL

Item: CO[C@]1(C)C[C@@H](C)CN(C)[C@@H](C2CN(C(=O)CN(C)C)C2)COC(=O)C(C)(C)C(=O)[C@H](C)[C@H]1O[C@@H]1O[C@H](C)C[C@H](N(C)C)[C@H]1O | MIC: < 4 µg/mL

Item: CO[C@]1(C)C[C@@H](C)CN(C)[C@@H]([C@H]2CCN(C(C)C)C2)COC(=O)C(C)(C)C(=O)[C@H](C)[C@H]1O[C@@H]1O[C@H](C)C[C@H](N(C)C)[C@H]1O | MIC: 4 to 32 µg/mL

Item: CO[C@]1(C)C[C@@H](C)CN(C)[C@H](C2CN(CC(=O)N3CCCC3)C2)COC(=O)C(C)(C)C(=O)[C@H](C)[C@H]1O[C@@H]1O[C@H](C)C[C@H](N(C)C)[C@H]1O | MIC: 4 to 32 µg/mL

Item: CCN(C)[C@H]1C[C@H]([C@@H]2COC(=O)C(C)(C)C(=O)[C@H](C)[C@@H](O[C@@H]3O[C@H](C)C[C@H](N(C)C)[C@H]3O)[C@](C)(OC)C[C@@H](C)CN2C)C1 | MIC: < 4 µg/mL

Item: CO[C@]1(C)C[C@@H](C)CN(C)[C@@H](C2CCN(C(C)C)CC2)COC(=O)C(C)(C)C(=O)[C@H](C)[C@H]1O[C@@H]1O[C@H](C)C[C@H](N(C)C)[C@H]1O | MIC: < 4 µg/mL

Item: CO[C@]1(C)C[C@@H](C)CN(C)[C@H](C2CC3CCC(C2)N3C(=O)CN(C)C)COC(=O)C(C)(C)C(=O)[C@H](C)[C@H]1O[C@@H]1O[C@H](C)C[C@H](N(C)C)[C@H]1O (stereo partly shown) | MIC: 4 to 32 µg/mL

Item: CO[C@]1(C)C[C@@H](C)CN(C)[C@H](C2CN(C(=O)CC(C)(C)CN(C)CC(C)C)C2)COC(=O)C(C)(C)C(=O)[C@H](C)[C@H]1O[C@@H]1O[C@H](C)C[C@H](N(C)C)[C@H]1O | MIC: 4 to 32 µg/mL

Item: CO[C@]1(C)C[C@@H](C)CN(C)[C@@H](C2CN(C(=O)C(C)(C)N(C)C)C2)COC(=O)C(C)(C)C(=O)[C@H](C)[C@H]1O[C@@H]1O[C@H](C)C[C@H](N(C)C)[C@H]1O | MIC: 4 to 32 µg/mL

Item: CO[C@]1(C)C[C@@H](C)CN(C)[C@H](C2CN(C(=O)CCCN(C)CC(C)C)C2)COC(=O)C(C)(C)C(=O)[C@H](C)[C@H]1O[C@@H]1O[C@H](C)C[C@H](N(C)C)[C@H]1O | MIC: 4 to 32 µg/mL

Item: CCCN1C[C@H](C)C[C@@](C)(OC)[C@H](O[C@@H]2O[C@H](C)C[C@H](N(C)C)[C@H]2O)[C@@H](C)C(=O)C(C)(C)C(=O)OC[C@H]1[C@H]1C[C@H](N(C)CC2CC2)C1 | MIC: < 4 µg/mL

Item: CO[C@]1(C)C[C@@H](C)CN(C)[C@H](C2CN(CCC(C)C)C2)COC(=O)C(C)(C)C(=O)[C@H](C)[C@H]1O[C@@H]1O[C@H](C)C[C@H](N(C)C)[C@H]1O | MIC: < 4 µg/mL

Item: CO[C@]1(C)C[C@@H](C)CN(C)[C@@H]([C@H]2CNC(=O)C2)COC(=O)C(C)(C)C(=O)[C@H](C)[C@H]1O[C@@H]1O[C@H](C)C[C@H](N(C)C)[C@H]1O | MIC: 4 to 32 µg/mL

Item: CO[C@]1(C)C[C@@H](C)CN(C)[C@H](C2CN(Cc3ccccn3)C2)COC(=O)C(C)(C)C(=O)[C@H](C)[C@H]1O[C@@H]1O[C@H](C)C[C@H](N(C)C)[C@H]1O | MIC: 4 to 32 µg/mL

Item: CCN1C[C@H](C)C[C@@](C)(OC)[C@H](O[C@@H]2O[C@H](C)C[C@H](N(C)C)[C@H]2O)[C@@H](C)C(=O)C(C)(C)C(=O)OC[C@H]1C1CN(CC(C)C)C1 | MIC: 4 to 32 µg/mL

Item: CO[C@]1(C)C[C@@H](C)CN(C)[C@H](c2ccc(-c3cccnc3)cc2)COC(=O)C(C)(C)C(=O)[C@H](C)[C@@H]1O[C@@H]1O[C@@H](C)C[C@H](N(C)C)[C@H]1O | MIC: > 32 µg/mL

Item: CO[C@]1(C)C[C@@H](C)CN(CC(C)C)[C@H](C2CN(C(=O)CN(C)C)C2)COC(=O)C(C)(C)C(=O)[C@H](C)[C@H]1O[C@@H]1O[C@H](C)C[C@H](N(C)C)[C@H]1O | MIC: > 32 µg/mL

* * *

System: S. aureus MP-12
Assay: Broth dilution MIC determination (CLSI), S. aureus MP-12
Type: cell-based
Conditions: Staphylococcus aureus, MP12; strain MP-12, broth dilution
OUTCOME MEASURE: MIC

Item: CN[C@H]1CC[C@H]([C@H]2COC(=O)C(C)(C)C(=O)[C@H](C)[C@@H](O[C@@H]3O[C@H](C)C[C@H](N(C)C)[C@H]3O)[C@](C)(OC)C[C@@H](C)CN2C)CC1 | MIC: > 32 µg/mL

Item: CO[C@]1(C)C[C@@H](C)CN(C)[C@H](C2CN(CC3CCCC3)C2)COC(=O)C(C)(C)C(=O)[C@H](C)[C@H]1O[C@@H]1O[C@H](C)C[C@H](N(C)C)[C@H]1O | MIC: 4 to 32 µg/mL

Item: CCN(C)CCCC(=O)N1CC([C@@H]2COC(=O)C(C)(C)C(=O)[C@H](C)[C@@H](O[C@@H]3O[C@H](C)C[C@H](N(C)C)[C@H]3O)[C@](C)(OC)C[C@@H](C)CN2C)C1 | MIC: > 32 µg/mL

Item: CO[C@]1(C)C[C@@H](C)CN(C(C)=O)[C@H](C2CCN(C(C)C)CC2)COC(=O)C(C)(C)C(=O)[C@H](C)[C@H]1O[C@@H]1O[C@H](C)C[C@H](N(C)C)[C@H]1O | MIC: > 32 µg/mL

Item: CO[C@]1(C)C[C@@H](C)CN(C)[C@@H](C2CCN(C(C)[C@H]3COC(C)(C)O3)CC2)COC(=O)C(C)(C)C(=O)[C@H](C)[C@H]1O[C@@H]1O[C@H](C)C[C@H](N(C)C)[C@H]1O (mixture of isomers) | MIC: 4 to 32 µg/mL

Item: CO[C@]1(C)C[C@@H](C)CN(C)[C@H]([C@@H]2CCN(C)C2)COC(=O)C(C)(C)C(=O)[C@H](C)[C@H]1O[C@@H]1O[C@H](C)C[C@H](N(C)C)[C@H]1O | MIC: > 32 µg/mL

Item: CO[C@]1(C)C[C@@H](C)CN(C)[C@H](C2CC3CCC(C2)N3C)COC(=O)C(C)(C)C(=O)[C@H](C)[C@H]1O[C@@H]1O[C@H](C)C[C@H](N(C)C)[C@H]1O (stereo partly shown) | MIC: > 32 µg/mL

Item: CO[C@]1(C)C[C@@H](C)CN(C)[C@@H](C2CN(C(=O)[C@@H](C)N(C)C)C2)COC(=O)C(C)(C)C(=O)[C@H](C)[C@H]1O[C@@H]1O[C@H](C)C[C@H](N(C)C)[C@H]1O | MIC: > 32 µg/mL

Item: CO[C@]1(C)C[C@@H](C)CN(C)[C@@H](C2CCN(C(C)C)CC2)COC(=O)C(C)(C)C(=O)[C@H](C)[C@H]1O[C@@H]1O[C@H](C)C[C@H](N(C)C)[C@H]1O | MIC: 4 to 32 µg/mL

Item: CO[C@]1(C)C[C@@H](C)CN[C@@H](c2ccccc2)COC(=O)[C@H](C)C(=O)[C@H](C)[C@H]1O[C@@H]1OC(C)CC(N(C)C)C1O (stereo partly shown) | MIC: > 32 µg/mL

Item: C=CCN1CC=C([C@H]2[C@@H](C)OC(=O)C(C)(C)C(=O)[C@H](C)[C@@H](O[C@@H]3O[C@H](C)C[C@H](N(C)C)[C@H]3O)[C@](C)(OC)C[C@@H](C)CN2C)CC1 | MIC: > 32 µg/mL

Item: CO[C@]1(C)C[C@@H](C)CN(C)[C@H](C2CN(Cc3ccncc3)C2)COC(=O)C(C)(C)C(=O)[C@H](C)[C@H]1O[C@@H]1O[C@H](C)C[C@H](N(C)C)[C@H]1O | MIC: 4 to 32 µg/mL

Item: CO[C@]1(C)C[C@@H](C)CN(C)[C@H](C2CCN(Cc3nccn3C)CC2)COC(=O)C(C)(C)C(=O)[C@H](C)[C@H]1O[C@@H]1O[C@H](C)C[C@H](N(C)C)[C@H]1O | MIC: 4 to 32 µg/mL

Item: CO[C@]1(C)C[C@@H](C)CN(C)[C@H](C2CN(Cc3cnn(C)c3)C2)COC(=O)C(C)(C)C(=O)[C@H](C)[C@H]1O[C@@H]1O[C@H](C)C[C@H](N(C)C)[C@H]1O | MIC: 4 to 32 µg/mL

Item: CO[C@]1(C)C[C@@H](C)CN(C)[C@H](C2CN(Cc3cncnc3)C2)COC(=O)C(C)(C)C(=O)[C@H](C)[C@H]1O[C@@H]1O[C@H](C)C[C@H](N(C)C)[C@H]1O | MIC: 4 to 32 µg/mL

Item: CO[C@]1(C)C[C@@H](C)CN(C)[C@H](c2ccccc2)COC(=O)C(C)(C)C(=O)[C@H](C)[C@H]1O[C@@H]1O[C@H](C)C[C@H](N(C)C)[C@H]1O | MIC: > 32 µg/mL

Item: CO[C@]1(C)C[C@@H](C)CN(C)[C@H](C2CN(Cc3ccccc3)C2)COC(=O)C(C)(C)C(=O)[C@H](C)[C@H]1O[C@@H]1O[C@H](C)C[C@H](N(C)C)[C@H]1O | MIC: 4 to 32 µg/mL

Item: CO[C@]1(C)C[C@@H](C)CN(C)[C@H]([C@@H]2CCCN(C(C)C)C2)COC(=O)C(C)(C)C(=O)[C@H](C)[C@H]1O[C@@H]1O[C@H](C)C[C@H](N(C)C)[C@H]1O | MIC: > 32 µg/mL

Item: CCCN1C[C@H](C)C[C@@](C)(OC)[C@H](O[C@@H]2O[C@H](C)C[C@H](N(C)C)[C@H]2O)[C@@H](C)C(=O)C(C)(C)C(=O)OC[C@H]1[C@H]1C[C@H](N(C)CC)C1 | MIC: 4 to 32 µg/mL
